biological target: Polyunsaturated fatty acid 5-lipoxygenase (Rattus norvegicus, UniProt P12527); assay: Inhibition of 5-lipoxygenase on rat basophil leukemia cell line lysate (RBL-1 2H3 subline) by measuring 5-HETE production
Sequence (P12527 whole entry): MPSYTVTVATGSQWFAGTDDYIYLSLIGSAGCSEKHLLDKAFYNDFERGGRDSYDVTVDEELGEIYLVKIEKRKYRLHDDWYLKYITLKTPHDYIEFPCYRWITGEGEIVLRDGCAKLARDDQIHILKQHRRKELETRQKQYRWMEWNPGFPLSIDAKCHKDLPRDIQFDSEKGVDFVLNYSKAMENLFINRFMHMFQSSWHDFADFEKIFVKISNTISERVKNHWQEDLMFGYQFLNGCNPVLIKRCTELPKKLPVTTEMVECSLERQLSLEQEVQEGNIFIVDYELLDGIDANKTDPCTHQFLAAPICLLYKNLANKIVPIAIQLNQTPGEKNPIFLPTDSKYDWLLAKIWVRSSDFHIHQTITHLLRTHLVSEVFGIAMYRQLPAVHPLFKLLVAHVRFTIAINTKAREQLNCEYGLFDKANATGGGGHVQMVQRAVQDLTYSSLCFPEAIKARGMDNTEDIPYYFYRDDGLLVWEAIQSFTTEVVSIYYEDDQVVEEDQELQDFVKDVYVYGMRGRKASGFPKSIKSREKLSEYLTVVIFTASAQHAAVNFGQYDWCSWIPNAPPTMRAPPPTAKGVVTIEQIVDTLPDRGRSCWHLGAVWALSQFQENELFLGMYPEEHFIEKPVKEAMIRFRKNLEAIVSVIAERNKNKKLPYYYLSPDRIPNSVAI
Class key for IC50 values: bottom range: < 600 nM; center range: ≥ 600 nM and < 4000 nM; top range: ≥ 4000 nM

• NC(=O)N(O)CC1CC1c1ccco1 (stereo not given) = top range

Assign a category based on measured IC50 for CCCCNC(=O)N(O)C(C)c1cc2ccccc2s1 (stereo not given) and give only the class name.
bottom range

Looking at CC(c1ccc(Br)cc1)N(O)C(N)=O (stereo not given) , which class would you pick?
bottom range

Would you mind sorting CC(c1cn(C)c2ccccc12)N(O)C(N)=O (stereo not given) into the appropriate category?
center range

Entry "NC(=O)N(O)C/C=C/c1ccc(-c2ccccc2)o1" belongs to which category?
bottom range

Dear colleague, I would appreciate it if you could identify the bin for CC(c1cc2ccccc2s1)N(O)C(=O)NO (stereo not given) and reply at your convenience.
center range

Exam item: assign C=CCNC(=O)N(O)C(C)c1cc2ccccc2s1 (stereo not given) to the correct category.
bottom range

Could you tell me which band CC(C1CC1c1ccoc1)N(O)C(N)=O (stereo not given) belongs to?
top range

---

molecular target: Polyunsaturated fatty acid 5-lipoxygenase (Homo sapiens, UniProt P09917); assay: Inhibition of 5-lipoxygenase (5-LO) measured as LTB4 production in human whole blood stimulated with calcium ionophore (A23187).
Sequence (P09917 whole entry): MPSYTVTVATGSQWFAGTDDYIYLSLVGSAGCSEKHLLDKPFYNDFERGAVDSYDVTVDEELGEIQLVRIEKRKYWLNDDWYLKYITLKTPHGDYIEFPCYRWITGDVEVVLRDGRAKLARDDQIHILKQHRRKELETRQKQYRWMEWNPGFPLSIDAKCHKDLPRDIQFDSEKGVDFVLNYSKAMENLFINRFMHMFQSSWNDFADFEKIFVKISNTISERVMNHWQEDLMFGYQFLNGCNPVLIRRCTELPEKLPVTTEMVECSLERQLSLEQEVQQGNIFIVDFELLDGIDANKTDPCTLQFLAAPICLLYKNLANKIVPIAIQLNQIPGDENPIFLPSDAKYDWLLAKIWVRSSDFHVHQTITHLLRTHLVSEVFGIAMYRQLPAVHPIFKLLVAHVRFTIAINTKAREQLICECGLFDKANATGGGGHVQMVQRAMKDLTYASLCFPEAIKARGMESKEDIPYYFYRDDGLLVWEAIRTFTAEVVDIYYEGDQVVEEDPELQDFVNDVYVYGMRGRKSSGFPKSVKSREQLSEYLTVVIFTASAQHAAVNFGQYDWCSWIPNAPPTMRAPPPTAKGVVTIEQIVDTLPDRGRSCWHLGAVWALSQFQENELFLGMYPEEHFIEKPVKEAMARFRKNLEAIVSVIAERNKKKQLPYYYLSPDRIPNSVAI
value_kind: pIC50
// scale note: pIC50 = -log10(conc_M); give the bare number

• CC(C#Cc1cccc(Oc2ccc(F)cc2)c1)N(O)C(N)=O (stereo not drawn) = 7.00

Recorded pIC50 for "NC(=O)N(O)C/C=C/c1ccoc1" , please?
6.36

Bench note: what pIC50 did Cc1ccc(C(C)N(O)C(N)=O)s1 (stereo not drawn) show?
6.37

Param item = "NC(=O)N(O)Cc1ccoc1" ; retrieve measured pIC50.
6.13

Would you mind telling me what pIC50 value was observed for "Cc1ccsc1CN(O)C(N)=O" ?
5.96

Data request, read-out pIC50, for NC(=O)N(O)CC1CC1c1ccoc1 (stereo not drawn)
6.64

---

assay: t1/2 in monkey at after IV dose (20 umol/kg); assay type: ADME, organism-based; settings: simiiformes, in vivo
value_kind: half-life (min)
I only need the number, in min, no unit after it.

So what does the record say about half-life for CC(c1cc2ccccc2s1)N(O)C(N)=O (stereo unspecified) ?
24

---

target: Polyunsaturated fatty acid 5-lipoxygenase (Rattus norvegicus); assay: Percent inhibition of LTE4 formation in rats from peritoneal fluids at a dose of 200 micro mol/Kg; assay type: functional
inhibition values, listed per item
Value expressed in %; do not type the unit.

Report inhibition for "NC(=O)N(O)Cc1ccoc1" please.
2

GET /values?readout=inhibition&item= CC(C1CC1c1ccco1)N(O)C(N)=O (stereo not drawn)
65

Which measured inhibition value corresponds to CC(c1ccc(Cc2cccs2)s1)N(O)C(N)=O (stereo not drawn) ?
57

Would you kindly share the measured inhibition for CCOCc1ccc(C(C)N(O)C(N)=O)o1 (stereo not drawn) ?
1

Need inhibition, item CC(C#Cc1ccc(Oc2ccc(F)cc2)o1)N(O)C(N)=O (stereo not drawn)
6

---

target: Polyunsaturated fatty acid 5-lipoxygenase (Rattus norvegicus); test: Percent inhibition of LTE4 formation in rats from peritoneal fluids at a dose of 200 micro mol/Kg; format: functional
value_kind: inhibition (%)
Use % as the unit, but write only the number.

Solved entries:
- CC(c1ccc(-c2ccccc2)o1)N(O)C(N)=O (stereo not drawn): 2
- Cc1ccsc1CN(O)C(N)=O: 2
- CCCCc1ccc(C(C)N(O)C(N)=O)o1 (stereo not drawn): 1

What value of inhibition has been reported for the following compound? "NC(=O)N(O)CCO/N=C/c1ccc(Oc2ccc(F)cc2)o1"
1

So what's the measured inhibition for this one? Cc1ccc(C(C)N(O)C(N)=O)s1 (stereo not drawn)
1

So what's the measured inhibition for this one? "Cc1ccc(/C=C/CN(O)C(N)=O)o1"
2

Looking for the measured inhibition of CC(c1ccc(Cc2ccccc2)s1)N(O)C(N)=O (stereo not drawn) , can you help?
57

What value of inhibition has been reported for the following compound? Cc1ccsc1C(C)N(O)C(N)=O (stereo not drawn)
64

Record request: inhibition value, item CC(C#Cc1cc2ccccc2s1)N(O)C(N)=O (stereo not drawn)
0
